assay: Inhibition of recombinant GGT1 (unknown origin) using GGPP as substrate preincubated for 5 mins followed by protein addition measured over 20 mins by fluorescence assay
pIC50: −log10 of the molar value.
assay-endpoint: pIC50

(1) COc1ccc(C[C@H](NC(=O)CCCOc2c(CCSC)c(-c3cccnc3)nn2-c2ccc(Cl)c(Cl)c2)C(N)=O)cc1
(2) CSCCc1c(-c2cccnc2)nn(-c2ccc(Cl)c(Cl)c2)c1OCCCC(=O)N[C@@H](Cc1ccncc1)C(N)=O
// select label with min value of measured pIC50 from [ 1 , 2 ] Reply briefly: the label of your chosen item.
2
(2: 5.11, 1: 5.51)

(1) CSCCc1c(-c2cccnc2)nn(-c2ccc(Cl)c(Cl)c2)c1OCCCC(=O)N[C@@H](Cc1ccccc1)C(N)=O
(2) COc1ccc(C[C@H](NC(C)=O)C(=O)NCCCOc2c(CCSC)c(-c3cccnc3)nn2-c2ccc(Cl)c(Cl)c2)cc1
// select label with min value of measured pIC50 from [ 1 , 2 ] Reply briefly: the label of your chosen item.
2
(2: 4.46, 1: 5.48)

---

assay: Inhibition of recombinant GGT1 (unknown origin) using GGPP as substrate preincubated for 5 mins followed by protein addition measured over 20 mins by fluorescence assay
assay-endpoint: pIC50
Notebook: values listed as pIC50 are -log10 of the concentration (mol/L).

// pIC50 value for CSCCc1c(-c2cccnc2)nn(-c2ccc(Cl)c(Cl)c2)c1OCCCNC(=O)[C@H](Cc1ccccc1)NC(C)=O : 4.64

---

experiment: Inhibition of recombinant GGT1 (unknown origin) using GGPP as substrate preincubated for 5 mins followed by protein addition measured over 20 mins by fluorescence assay
# IC50 per entry

substance-smiles	IC50
CSCCc1c(-c2cccnc2)nn(-c2ccc(Cl)c(Cl)c2)c1OCCCNC(=O)[C@H](Cc1cccnc1)NC(C)=O	> 50 µM

// IC50 value for CSCCc1c(-c2cccnc2)nn(-c2ccc(Cl)c(Cl)c2)c1OCCCNC(=O)[C@H](Cc1ccccc1)NS(C)(=O)=O : 31.9 µM

// IC50 value for CSCCc1c(-c2cccnc2)nn(-c2ccc(Cl)c(Cl)c2)c1OCCCNC(=O)[C@H](Cc1cccnc1)NS(C)(=O)=O : > 50 µM
